Test: Tolerability in CD1 mice: organ weight (Example 33)
Type: in vivo
Conditions: 50 mg/kg s.c. twice a week, 2 weeks, vs PBS control, normalized to body weight
endpoint: Percent change in kidney weight

416864 (antisense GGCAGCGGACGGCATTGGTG; 5-10-5 gapmer, further chemistry not given here) [compound 416864]    −4%
417002 (antisense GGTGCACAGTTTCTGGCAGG; 2-13-5 gapmer chemistry, further chemistry not given here) [compound 417002]    +3%
416999 (antisense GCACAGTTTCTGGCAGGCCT; 2-13-5 gapmer chemistry, further chemistry not given here) [compound 416999]    −9%
417003 (antisense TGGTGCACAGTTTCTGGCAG; 2-13-5 gapmer chemistry, further chemistry not given here) [compound 417003]    −9%
416858 (antisense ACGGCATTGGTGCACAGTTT; 5-10-5 gapmer, further chemistry not given here) [compound 416858]    +1%
416850 (antisense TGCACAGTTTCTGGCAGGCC; 5-10-5 gapmer, further chemistry not given here) [compound 416850]    −0%

Reported Percent change in kidney weight ( 416925 (antisense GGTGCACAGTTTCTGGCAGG; 3-14-3 gapmer chemistry, further chemistry not given here) [compound 416925] ) = −4%

Reported Percent change in kidney weight ( 416838 (antisense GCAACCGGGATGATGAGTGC; 5-10-5 gapmer, further chemistry not given here) [compound 416838] ) = −2%

The values you see were collected from patent US20230263822A1.
